B1: EEHEE_rd4_0469 (parent)
chain: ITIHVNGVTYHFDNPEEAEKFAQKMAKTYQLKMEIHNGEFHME

- Variants of: B1
- EXPERIMENTAL DETAILS: folding stability dG (cDNA display proteolysis); higher = more stable
- CONDITION NOTES: PBS, room temperature
Recorded folding stability dG, one value per entry.
PARAMETER: folding stability dG (kcal/mol)

variant_code=M33F recorded_value=1.18
variant_code=Y10N recorded_value=-0.261
variant_code=M25W recorded_value=1.07
variant_code=K20E recorded_value=1.11
variant_code=Y10I recorded_value=0.806
variant_code=T9N recorded_value=0.826
variant_code=V8Q recorded_value=1.06
variant_code=A26V recorded_value=0.794
variant_code=A22L recorded_value=0.879
variant_code=D13N recorded_value=1.13
variant_code=T28I recorded_value=1.6

Each recorded value in this set is attributed to the MegaScale stability set (Tsuboyama et al. 2023).
